Biological target: PHD1 (EGLN2) (Homo sapiens (Human))
Sequence (Q96KS0 whole entry): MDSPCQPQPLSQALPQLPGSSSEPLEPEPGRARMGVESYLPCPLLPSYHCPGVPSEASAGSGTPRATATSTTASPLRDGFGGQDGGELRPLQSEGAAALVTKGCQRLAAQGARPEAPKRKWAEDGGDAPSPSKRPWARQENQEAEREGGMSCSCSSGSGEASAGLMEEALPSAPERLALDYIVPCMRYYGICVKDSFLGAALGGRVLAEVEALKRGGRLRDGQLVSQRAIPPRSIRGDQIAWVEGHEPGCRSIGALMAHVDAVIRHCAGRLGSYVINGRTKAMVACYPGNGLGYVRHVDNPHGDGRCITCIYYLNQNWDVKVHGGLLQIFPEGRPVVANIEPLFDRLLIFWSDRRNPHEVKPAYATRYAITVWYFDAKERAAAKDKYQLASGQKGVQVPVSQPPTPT
Assay: HIF-PH assay (14CO2 capture), PHD1 enzyme inhibition
Format: biochemical
Conditions: Table 1; individual measurement; read-out: IC50 (μM) PHD1
measurement.kind: IC50 (µM)

N#Cc1nc(C(=O)NCC(CC(=O)O)c2ccc(Cl)cc2)c(O)c2ccc(Oc3ccccc3)cc12 (stereo not shown) | 2.55
C[C@@H](CNC(=O)c1nc(C#N)c2cc(Oc3ccccc3)ccc2c1O)C(=O)O | 0.16
O=C(Nc1ccccc1)Nc1ccc2c(O)c(C(=O)NC[C@H](O)C(=O)O)ncc2c1 | 4.66
CN(C)C(=O)N[C@H](CCNC(=O)c1nc(C#N)c2cc(Oc3ccccc3)ccc2c1O)C(=O)O | 1.81
N#Cc1nc(C(=O)NCCC(=O)O)c(O)c2ccc(Oc3ccc(F)cc3Cl)cc12 | 1.3

P: N#Cc1nc(C(=O)NCC(C(=O)O)c2ccccc2F)c(O)c2ccc(Oc3ccccc3)cc12 (stereo not shown)
Q: N#Cc1nc(C(=O)NCCCC(=O)O)c(O)c2ccc(Oc3ccccc3)cc12
Record comparison, field IC50: mark the lower of P and Q . Please indicate the selected item by its label.
Q
(Q: 0.14 µM, P: 1.81 µM)

I: N#Cc1nc(C(=O)NC(CC(=O)O)c2ccc(Cl)cc2)c(O)c2ccc(Oc3ccccc3)cc12 (stereo not shown)
II: CC(C)(CCNC(=O)c1nc(C#N)c2cc(Oc3ccccc3)ccc2c1O)C(=O)O
III: O=C(O)CCNC(=O)c1ncc2cc(NC(=O)NCc3ccccc3)ccc2c1O
List the 3 entries from lowest IC50 to highest IC50 value. Kindly provide the labels arranged according to the requested ordering.
II, III, I
(II: 0.34 µM, III: 0.85 µM, I: 3.97 µM)
